Cited source: patent US20070185311A1

target: DD(E) fragment of fibrin; assay: affinity to DD(E) fragment of fibrin
pKd: −log10 of the molar value. Starred links: 1 amine or outer side, 2 acyl side, 3 side chain; linkers in the order of their positions; H or OH if unused. Positions of bridges follow the written chain, without caps; N, C: chain ends. Non-standard residues stand in square brackets, D forms with d. No end group written: not given here. Phe(4-OMe) = COc1ccc(C[C@H](N[*:1])C(=O)[*:2])cc1; Bpa = N[C@@H](Cc1ccc(C(=O)c2ccccc2)cc1)C(=O)O; Phe(4-CH2NH2) = NCc1ccc(C[C@H](N)C(=O)O)cc1; Tyr(3-Cl) = N[C@@H](Cc1ccc(O)c(Cl)c1)C(=O)O; Tyr(3-I) = N[C@@H](Cc1ccc(O)c(I)c1)C(=O)O; Phe(3-OMe) = COc1cccc(C[C@H](N)C(=O)O)c1; Hyp = O=C(O)[C@@H]1C[C@@H](O)CN1; Phg = N[C@H](C(=O)O)c1ccccc1; Taz = not defined here
Readings of pKd for the listed binders

- binder: "[Phe(4-OMe)][His(Bzl)]C[Hyp][Tyr(3-I)]DLCHI (disulfide 3-8 (inferred)) [F(4-OMe)-H(Bzl)-C-Hyp-Y(3-I)-D-L-C-H-I]"
  result-value: "> 7.00"
- binder: "[Phe(4-CH2NH2)]HC[Hyp][Tyr(3-I)]DLCHI (disulfide 3-8 (inferred)) [F(4-CH2NH2)-H-C-Hyp-Y(3-I)-D-L-C-H-I]"
  result-value: "> 7.00"

Consider the binder FHC[Hyp][Tyr(3-I)]DLCH[nVal] (disulfide 3-8 (inferred)) [F-H-C-Hyp-Y(3-I)-D-L-C-H-nVal] and give its measured pKd.
> 6.70

Consider the binder [Tyr(3-Cl)]HC[Hyp][Tyr(3-I)]DLCHI (disulfide 3-8 (inferred)) [Y(3-Cl)-H-C-Hyp-Y(3-I)-D-L-C-H-I] and give its measured pKd.
> 7.00

Consider the binder FHC[Hyp][Tyr(3-I)]DLCH[Phe(3-OMe)] (disulfide 3-8 (inferred)) [F-H-C-Hyp-Y(3-I)-D-L-C-H-F(3-OMe)] and give its measured pKd.
> 7.00

Consider the binder FHCP[Tyr(3-Cl)]DLCHIL (disulfide 3-8 (inferred)) [F-H-C-P-Y(3-Cl)-D-L-C-H-I-L] and give its measured pKd.
> 6.70

Consider the binder FHC[Hyp][Tyr(3-I)]DLCHIL (disulfide 3-8 (inferred)) [F-H-C-Hyp-Y(3-I)-D-L-C-H-I-L] and give its measured pKd.
> 7.00

Consider the binder [Phe(4-OMe)]HC[Hyp][Tyr(3-I)]DLCH[Bpa] (disulfide 3-8 (inferred)) [F(4-OMe)-H-C-Hyp-Y(3-I)-D-L-C-H-Bpa] and give its measured pKd.
> 7.00

Consider the binder FHC[Hyp][Tyr(3-I)]DLCH[Phg] (disulfide 3-8 (inferred)) [F-H-C-Hyp-Y(3-I)-D-L-C-H-Phg] and give its measured pKd.
> 6.70

Consider the binder FHCPYDLCHIL (disulfide 3-8 (inferred)) [F-H-C-P-Y-D-L-C-H-I-L] and give its measured pKd.
> 6.52

Consider the binder FHC[Hyp][Tyr(3-I)]DLC[Taz]I (disulfide 3-8 (inferred); reading uncertain; also: printed as F-H-C-Hyp-Y(3-I)-D-L-C-Taz-I) [F-H-C-Hyp-Y(3-I)-D-L-C-Taz-I] and give its measured pKd.
> 6.30
